# TEST METHOD NOTES: Inhibition of Sulfurihydrogenibium azorense alpha-carbonic anhydrase preincubated for 15 mins by stopped flow CO2 hydration assay
Where a name gives a salt, the structure may show the parent alone.
Please provide measured pKi for the entries that follow.
// pKi here means minus log10 of the molar concentration (mol/L)

Qu. Requested field: pKi. Item: O=BOB(O)OB(O)OB=O [SODIUM TETRABORATE]
Ans. 3.31

Qu. Let us now turn to S=C(S)S [SODIUM CARBONOTRITHIOATE]
Ans. 4.41

Qu. Let us now turn to [N-]=[N+]=[N-] [SODIUM AZIDE]
Ans. 3.47

Qu. Let us now turn to O=[As](O)(O)c1ccccc1 [PHENYLARSONIC ACID SODIUM SALT]
Ans. 5.10

Qu. Let us now turn to O=C([O-])[O-].[Na+].[Na+] [SODIUM CARBONATE]
Ans. 2.12

Qu. Let us now turn to [Cl-].[Na+] [SODIUM CHLORIDE]
Ans. 3.07

Qu. Let us now turn to O=[N+]([O-])[O-].[Na+] [SODIUM NITRATE]
Ans. 3.12

Qu. Let us now turn to [I-].[Na+] [SODIUM IODIDE]
Ans. 3.06

Qu. Let us now turn to [Br-].[Na+] [SODIUM BROMIDE]
Ans. 3.03

Qu. Let us now turn to NS(N)(=O)=O [SULFURIC DIAMIDE SODIUM SALT]
Ans. 5.40

Qu. Let us now turn to O=[Se](=O)(O)O [SODIUM SELENATE]
Ans. 3.29

Qu. Let us now turn to N=C=[Se] [SODIUM ISOSELENOCYANATE]
Ans. 3.31

Qu. Let us now turn to O=P(O)(O)OP(=O)(O)O [SODIUM PYROPHOSPHATE]
Ans. 3.18

Qu. Let us now turn to O=S(=O)(O)OOS(=O)(=O)O [SODIUM PERSULFATE]
Ans. 1.48

Qu. Let us now turn to NS(=O)(=O)O [SODIUM SULFAMATE]
Ans. 5.30

Qu. Let us now turn to [F-].[Na+] [SODIUM FLUORIDE]
Ans. 3.01

----------
# ASSAYED TARGET: Carbonic anhydrase 2 (Homo sapiens, UniProt P00918)
MEASURED METRIC: pKi
// pKi here means minus log10 of the molar concentration (mol/L)

Qu. Requested field: pKi. Item: O=S(=O)(O)ONOS(=O)(=O)O [SODIUM IMINODISULFATE]
Ans. 3.12
